- assayed system: UniProtKB P05164
- Sequence (P05164 165-273 limits assumed): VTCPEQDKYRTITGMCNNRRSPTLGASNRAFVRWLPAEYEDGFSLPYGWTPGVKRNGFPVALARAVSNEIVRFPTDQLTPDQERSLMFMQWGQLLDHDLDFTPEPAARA
- Sequence (P05164 279-745 limits assumed): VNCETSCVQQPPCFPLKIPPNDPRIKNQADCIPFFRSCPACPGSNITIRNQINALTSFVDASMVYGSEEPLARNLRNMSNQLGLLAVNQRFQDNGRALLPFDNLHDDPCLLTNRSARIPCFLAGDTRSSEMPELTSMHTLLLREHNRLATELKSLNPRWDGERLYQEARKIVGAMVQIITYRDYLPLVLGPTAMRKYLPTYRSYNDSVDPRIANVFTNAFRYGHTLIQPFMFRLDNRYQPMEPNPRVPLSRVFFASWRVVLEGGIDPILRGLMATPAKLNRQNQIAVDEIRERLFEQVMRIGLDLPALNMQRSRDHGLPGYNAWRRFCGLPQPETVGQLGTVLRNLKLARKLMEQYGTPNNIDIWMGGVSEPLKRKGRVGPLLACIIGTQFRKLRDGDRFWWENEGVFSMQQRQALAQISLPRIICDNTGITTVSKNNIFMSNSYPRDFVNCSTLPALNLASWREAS
- test summary: Inhibition of human recombinant MPO-mediated taurine chlorination after 5 mins by microplate assay
- Format: single protein
- stated conditions: read-out: IC50
pIC50: −log10 of the molar value.
Output criterion met for pIC50 not less than 7; output criterion not met otherwise.

Query: Hi team, for Fc1ccc2[nH]cc(CCCNCc3ccccc3)c2c1 , is the recorded pIC50 at or above 7?
Reply: criterion met

Query: Hi team, for CCN(CCCc1c[nH]c2ccc(F)cc12)S(C)(=O)=O , is the recorded pIC50 at or above 7?
Reply: criterion met

Query: Hi team, for CCCc1c[nH]c2ccc(F)cc12 , is the recorded pIC50 at or above 7?
Reply: criterion not met

Query: Hi team, for NC(=O)CCCCc1c[nH]c2ccc(F)cc12 , is the recorded pIC50 at or above 7?
Reply: criterion met

Query: Hi team, for CCSCCc1c[nH]c2ccc(F)cc12 , is the recorded pIC50 at or above 7?
Reply: criterion not met

Query: Hi team, for NCCc1c[nH]c2ccccc12 , is the recorded pIC50 at or above 7?
Reply: criterion not met

Query: Hi team, for OCCNCCc1c[nH]c2ccc(F)cc12 , is the recorded pIC50 at or above 7?
Reply: criterion met

# credit: ChEMBL document CHEMBL2346663
